# Assay procedure: MMV: MTT Cytotoxicity Assay Day 7 pi of Assay #7 (compound washed out Day 1 pi), U87-CD4-CXCR4 cells, % cell death @ 5mM compound
# Assay type: toxicity, cell-based
# Conditions used: human, u87-cd4-cxcr4, 5000 µM
// label = Y if % Cell Death is not less than 20, otherwise N

>  <Compound>
COc1ccc(C(O)(CCC(C)C)C(CN2CCOCC2)c2ccc(Cl)cc2)cc1.Cl (stereo not given)

>  <Assigned label>
N

$$$$
>  <Compound>
Cc1cc(NC(=O)c2cccc(C(F)(F)F)c2)n(-c2nc(-c3ccc4c(c3)OCO4)cs2)n1

>  <Assigned label>
N

$$$$
>  <Compound>
COc1ccc(N2CCN(C(CNC(=O)CC(C)(C)C)c3ccc4c(c3)OCO4)CC2)cc1 (stereo not given)

>  <Assigned label>
Y

$$$$
>  <Compound>
COc1ccc(NC(=O)C2c3ccccc3C(=O)N(CC(C)C)C2c2cccs2)cc1 (stereo not given)

>  <Assigned label>
N

$$$$

Moving on to another compound below.
Tell me whether % Cell Death is at least 20 here: CCN(CC)CCCNc1ccnc2cc3ccccc3cc12 Y

---

# Assay procedure: MMV: MTT Cytotoxicity Assay Day 3 pi, U87-CD4-CXCR4 cells, % cell death @ 5mM compound
# Format: toxicity, cell-based
# Conditions used: human, u87-cd4-cxcr4, 5000 µM
Value kind: % Cell Death
I only need the number, thanks.

>  <Molecule>
CC(C)(C)c1ccc(O)c(CNC2CCCCC2)c1

>  <Value kind>
% Cell Death

>  <Test result>
66

$$$$
>  <Molecule>
CCOc1ccc2nc(C)cc(Nc3ccc(Br)cc3)c2c1

>  <Value kind>
% Cell Death

>  <Test result>
64

$$$$
>  <Molecule>
COc1ccc(C2=C(c3ccc(OC)cc3)C3(c4ccccc4)C(=O)C2(c2ccccc2)C2C(=O)N(c4ccc(C)cc4)C(=O)C23)cc1 (centres undefined)

>  <Value kind>
% Cell Death

>  <Test result>
28

$$$$

Here is another molecule to look at.
Look up % Cell Death for this molecule: OCCNc1nc(Nc2ccc(Cl)c(Cl)c2)nc2ccccc12 30

---

Catalogue of compounds with associated % Cell Death
# Assay procedure: MMV: MTT Cytotoxicity Assay Day 7 pi of Assay #10 (NO washout), U87-CD4-CCR5 cells, % cell death @ 5mM compound
# Type: toxicity, cell-based
# Conditions used: human, u87-cd4-ccr5, 5000 µM
When you answer, write just the number.

>  <Compound smiles>
COc1cccc(Cn2c(Oc3ccccc3)nc3c2c(=O)n(C)c(=O)n3C)c1

>  <% Cell Death>
39

$$$$
>  <Compound smiles>
O=C(CSc1ccc2nnc(-c3cccc(F)c3)n2n1)Nc1ccc2c(c1)OCO2

>  <% Cell Death>
94

$$$$

Request the reported % Cell Death associated with COc1cccc(-c2nn(C)c3sc(C(=O)NCCN4CCN(c5ccccc5F)CC4)cc23)c1 33

---

# Assay procedure: MMV: MTT Cytotoxicity Assay Day 3 pi, U87-CD4-CXCR4 cells, % cell death @ 5mM compound
# Type: toxicity, cell-based
# Conditions used: human, u87-cd4-cxcr4, 5000 µM
// reported % Cell Death per item
# answer = number (no unit)

>  <Compound>
Cc1cccc(-n2ncc3c(O)nc(-n4nc(C)cc4NC(=O)c4cc5ccccc5o4)nc32)c1

>  <Test result>
39

$$$$
>  <Compound>
Cc1ccc(Nc2nc(N)c3ccccc3n2)cc1Cl

>  <Test result>
36

$$$$

Tell me the measured % Cell Death of OC(CNC1CCCCC1)Cn1c2ccc(I)cc2c2cc(I)ccc21 (centres undefined) , please. 25

Param item = Oc1ccc(Cl)cc1CNc1nc2ccccc2[nH]1 ; retrieve measured % Cell Death. 10

---

# Assay procedure: MMV: MTT Cytotoxicity Assay Day 3 pi, U87-CD4-CXCR4 cells, % cell death @ 5mM compound
# Type: toxicity, cell-based
# Conditions used: human, u87-cd4-cxcr4, 5000 µM
Let's look at some molecules and their measured % Cell Death.
Response field accepts a number only; no unit should be typed.

These solved cases illustrate the format of a correct answer.
>  <Molecule>
CN(C)CCNc1cc(-c2ccccc2)nc2ccccc12

>  <% Cell Death>
18

$$$$
>  <Molecule>
COc1ccc(C(=O)NC(c2ccc(Cl)cc2Cl)c2cc(Cl)c3cccnc3c2O)cc1 (configuration not stated)

>  <% Cell Death>
58

$$$$
>  <Molecule>
COc1cccc(C2(C)Nc3ccccc3-c3nc4ccccc4n32)c1 (configuration not stated)

>  <% Cell Death>
28

$$$$
>  <Molecule>
CCn1c(CN2CCN(Cc3ccccc3)CC2)nc2cc(NC(=O)c3cccs3)ccc21

>  <% Cell Death>
21

$$$$
>  <Molecule>
COc1ccc(-n2ccnc2SCC(=O)Nc2cc(C)ccc2C)c(OC)c1

>  <% Cell Death>
54

$$$$

I would be grateful if you could share the reported % Cell Death for Cc1ccc(Cl)cc1N1CCN(CCCNC(=O)C2CCN(c3nc4ccccc4[nH]3)CC2)CC1 . 6

Give its % Cell Death value. Item: Cl.Clc1cc(Br)ccc1-c1ccc(CNCC2CCNCC2)o1 27

Consider the molecule shown here: CCOC(=O)c1cn(CC)c2cc(N3CCCCC3)c(F)cc2c1=O What is its recorded % Cell Death? 101

What value of % Cell Death has been reported for the following molecule? CCOc1ccc(CN2CCN(CC(O)COc3ccc(OCC(O)CN4CCN(Cc5ccc(OCC)cc5)CC4)cc3)CC2)cc1 (configuration not stated) 50

Sample Oc1c(CN2CCN(c3ccccc3F)CC2)cc(Br)c2cccnc12 — what was its % Cell Death? 51

Item CC(=O)c1sc(NC(=O)Nc2ccc(C)cc2C)nc1C has what recorded % Cell Death? 45

Any idea what % Cell Death was measured for CCOc1cc(Br)c(C(C)NC(=O)c2cccc(OC)c2)cc1OCC (configuration not stated) ? -7

Which % Cell Death is reported for this molecule? COc1ccc2c(c1OC)C(=O)N1c3ccccc3N=C(c3ccc(C)cc3)CC21 (configuration not stated) 72

Could you tell me which % Cell Death is on file for CC(C)(C)c1ccc2c(c1)CN(Cc1ccc(Cl)cc1)CO2 ? 37

So what does the record say about % Cell Death for OC(Cn1nnc2ccccc21)Cn1c2ccc(Br)cc2c2cc(Br)ccc21 (configuration not stated) ? -29

Return reported % Cell Death; argument: CCc1ccc(CNCC(O)c2ccccc2)cc1.Cl (configuration not stated) 37

Fill blank: measured % Cell Death of the molecule COc1cccc(O)c1CN1CCC2(CCCN(Cc3ccc(F)cc3)C2)C1 (configuration not stated) is ____. -7

Return reported % Cell Death; argument: O=C(Nc1ccc(N2CCN(Cc3ccccc3)CC2)cc1)c1cccs1.O=C(O)C(F)(F)F 55

---

# Assay procedure: MMV: MTT Cytotoxicity Assay Day 7 pi of Assay #11 (NO washout), U87-CD4-CXCR4 cells, % cell death @ 5mM compound
# Assay type: toxicity, cell-based
# Conditions used: human, u87-cd4-cxcr4, 5000 µM
Value kind: % Cell Death

>  <Molecule>
O=C1CC(O)(C(F)(F)C(F)(F)F)Oc2ccccc21 (stereo not drawn)

>  <% Cell Death>
35

$$$$
>  <Molecule>
O=C(NC1CCCCC1)C(c1cccs1)N(CCc1ccccc1)C(=O)c1ccco1 (stereo not drawn)

>  <% Cell Death>
97

$$$$
>  <Molecule>
OC1=C2C(=Nc3ccccc3SC2c2ccc(Br)cc2)c2ccccc21 (stereo not drawn)

>  <% Cell Death>
0

$$$$
>  <Molecule>
COc1ccc(C(=O)Nc2ccc3nc(N4CCCCC4)cc(C)c3c2)cc1OC

>  <% Cell Death>
106

$$$$
>  <Molecule>
CN(C)c1ccc(C(O)(c2ccc(N(C)C)cc2)c2ccc(N(C)C)cc2)cc1

>  <% Cell Death>
71

$$$$

I have this molecule here, CCCCNc1nc(NC(C)(C)C)nc(NC(C)(C)C)n1 , and I need its recorded % Cell Death. -2

Entry O=C(O)C1Cc2c([nH]c3ccccc23)C(c2ccc(Cl)cc2Cl)N1 (stereo not drawn) has what % Cell Death? -2

Consider the molecule shown here: Cc1ccc(Cl)cc1N1CCN(CCCNC(=O)C2CCN(c3nc4ccccc4[nH]3)CC2)CC1 What is its recorded % Cell Death? 57

---

Quick reference: % Cell Death of the listed items.
# Assay procedure: MMV: MTT Cytotoxicity Assay Day 3 pi, U87-CD4-CCR5 cells, % cell death @ 5mM compound
# Format: toxicity, cell-based
# Conditions used: human, u87-cd4-ccr5, 5000 µM
Write no unit; give the number alone.

Some solved entries appear below for comparison.
>  <Compound>
COc1cc2c(cc1OC)C1=NNC(=O)C1=NC(C)(C)C2

>  <% Cell Death>
107

$$$$
>  <Compound>
OC(CNC1CCCCC1)Cn1c2ccccc2c2ccccc21 (stereo not given)

>  <% Cell Death>
-3

$$$$
>  <Compound>
CCN(CC)CCNc1ccnc2cc(Cl)ccc12

>  <% Cell Death>
4

$$$$
>  <Compound>
Cl.OC(CNCc1ccccc1)Cn1c2ccccc2c2ccccc21 (stereo not given)

>  <% Cell Death>
19

$$$$
>  <Compound>
Cc1ccc2nc(C)cc(Nc3cccc(C(F)(F)F)c3)c2c1.Cl

>  <% Cell Death>
-13

$$$$

Consider the compound shown here: O=C1c2ccccc2C2=Nc3ccccc3SC(c3cccc(F)c3)C12 (stereo not given) What is its recorded % Cell Death? 11

Suppose we examine the compound COc1ccc(C(=O)NC(c2ccccc2Cl)c2cc(Cl)c3cccnc3c2O)cc1 (stereo not given) ; what % Cell Death value has been reported? 50

Data request, read-out % Cell Death, for CCOc1cc2c(cc1OCC)C(c1cc(OC)c(O)cc1Cl)NCC2 (stereo not given) 31

Requested field: % Cell Death. Item: COc1ccc(-c2cn3c(C(=O)Nc4ccccc4Cl)c(-c4ccccc4)c4c3n2CCCC4)cc1 -20

GET /values?readout=% Cell Death&item= Brc1ccc(Nc2nc3ccccc3nc2Nc2ccc(Br)cc2)cc1 15

Find the recorded % Cell Death belonging to O=C1c2ccc3c4c(ccc(c24)C(=O)N1CCCCO)C(=O)N(CCCCO)C3=O and report it. 39

Data request, read-out % Cell Death, for CN(C)CCCNc1c2ccccc2nc2ccccc12 30

Which % Cell Death is listed for CCN(CC)CCNc1ncnc2c1[nH]c1ccc(Br)cc12 ? -7

Values from ChEMBL document CHEMBL3301472
